# experiment.notes: Long-term storage stability of antibiotics in combination with fosfomycin spiked in plasma/CAMHB (−30 °C, −80 °C)
# Type: physicochemical
# run.parameters: plasma, combination with fosfomycin, 4 weeks at -30 °C; HQC (nominal as E15)
recorded.endpoint: Mean accuracy (%), Table S12

C[C@@H]1O[C@@H]1P(=O)(O)O	94.0
CO/N=C(\C(=O)N[C@@H]1C(=O)N2C(C(=O)[O-])=C(C[N+]3(C)CCCC3)CS[C@H]12)c1csc(N)n1 [Cefepime, cefepime]	89.6
CN(C)c1cc(NC(=O)CNC(C)(C)C)c(O)c2c1C[C@H]1C[C@H]3[C@H](N(C)C)C(O)=C(C(N)=O)C(=O)[C@@]3(O)C(O)=C1C2=O	110.7
Cn1c(N)c(NC(=O)NCCN)c[n+]1CC1=C(C(=O)O)N2C(=O)[C@@H](NC(=O)/C(=N\OC(C)(C)C(=O)[O-])c3nsc(N)n3)[C@H]2SC1	99.3

====

# experiment.notes: Autosampler stability at 4 °C of extracted antibiotic-spiked plasma/CAMHB samples
# run.parameters: CAMHB extracted samples, 7 h autosampler 4 °C; HQC (nominal as E15)
recorded.endpoint: Mean accuracy (%), Table S8

C[C@H]1[C@H](NC(=O)/C(=N\OC(C)(C)C(=O)O)c2csc(N)n2)C(=O)N1S(=O)(=O)O	99.3
C[C@]1(Cn2ccnn2)[C@H](C(=O)O)N2C(=O)C[C@H]2S1(=O)=O	109.6
NC(=O)[C@@H]1CC[C@@H]2CN1C(=O)N2OS(=O)(=O)O	106.4
CCN1CCN(C(=O)N[C@@H](C(=O)N[C@@H]2C(=O)N3[C@@H]2SC(C)(C)[C@@H]3C(=O)O)c2ccccc2)C(=O)C1=O	89.6
Cn1c(N)c(NC(=O)NCCN)c[n+]1CC1=C(C(=O)O)N2C(=O)[C@@H](NC(=O)/C(=N\OC(C)(C)C(=O)[O-])c3nsc(N)n3)[C@H]2SC1	113.3
C[C@@H]1O[C@@H]1P(=O)(O)O	96.0
CN(C)c1cc(NC(=O)CNC(C)(C)C)c(O)c2c1C[C@H]1C[C@H]3[C@H](N(C)C)C(O)=C(C(N)=O)C(=O)[C@@]3(O)C(O)=C1C2=O	103.5
CC(C)(O/N=C(\C(=O)N[C@@H]1C(=O)N2C(C(=O)[O-])=C(C[n+]3ccccc3)CS[C@H]12)c1csc(N)n1)C(=O)O	109.2
C[C@@H](O)[C@H]1C(=O)N2C(C(=O)O)=C(S[C@@H]3CN[C@H](CNS(N)(=O)=O)C3)[C@H](C)[C@H]12	103.1
CO/N=C(\C(=O)N[C@@H]1C(=O)N2C(C(=O)[O-])=C(C[N+]3(C)CCCC3)CS[C@H]12)c1csc(N)n1 [Cefepime, cefepime]	96.7
C[C@H]1COc2c(N3CCN(C)CC3)c(F)cc3c(=O)c(C(=O)O)cn1c23	98.8
C[C@@H](O)[C@H]1C(=O)N2C(C(=O)O)=C(S[C@@H]3CN[C@H](C(=O)N(C)C)C3)[C@H](C)[C@H]12	107.7

====

# experiment.notes: Long-term storage stability of antibiotics in combination with fosfomycin spiked in plasma/CAMHB (−30 °C, −80 °C)
# Format: physicochemical
# run.parameters: CAMHB, combination with fosfomycin, 2 weeks at -30 °C; MQC (nominal as E14)
recorded.endpoint: Mean accuracy (%), Table S15

CO/N=C(\C(=O)N[C@@H]1C(=O)N2C(C(=O)[O-])=C(C[N+]3(C)CCCC3)CS[C@H]12)c1csc(N)n1 [Cefepime, cefepime]	102.0
CC(C)(O/N=C(\C(=O)N[C@@H]1C(=O)N2C(C(=O)[O-])=C(C[n+]3ccccc3)CS[C@H]12)c1csc(N)n1)C(=O)O	106.0
NC(=O)[C@@H]1CC[C@@H]2CN1C(=O)N2OS(=O)(=O)O	89.1
CCN1CCN(C(=O)N[C@@H](C(=O)N[C@@H]2C(=O)N3[C@@H]2SC(C)(C)[C@@H]3C(=O)O)c2ccccc2)C(=O)C1=O	89.5

====

# experiment.notes: Long-term storage stability of antibiotics in combination with fosfomycin spiked in plasma/CAMHB (−30 °C, −80 °C)
# Type: physicochemical
# run.parameters: CAMHB, combination with fosfomycin, 4 weeks at -30 °C; LQC (nominal as E13)
recorded.endpoint: Mean accuracy (%), Table S16

CN(C)c1cc(NC(=O)CNC(C)(C)C)c(O)c2c1C[C@H]1C[C@H]3[C@H](N(C)C)C(O)=C(C(N)=O)C(=O)[C@@]3(O)C(O)=C1C2=O [Tigecycline, tigecycline]	87.0
CO/N=C(\C(=O)N[C@@H]1C(=O)N2C(C(=O)[O-])=C(C[N+]3(C)CCCC3)CS[C@H]12)c1csc(N)n1 [Cefepime, cefepime]	91.1
CCN1CCN(C(=O)N[C@@H](C(=O)N[C@@H]2C(=O)N3[C@@H]2SC(C)(C)[C@@H]3C(=O)O)c2ccccc2)C(=O)C1=O [Piperacillin, piperacillin]	90.6
CC(C)(O/N=C(\C(=O)N[C@@H]1C(=O)N2C(C(=O)[O-])=C(C[n+]3ccccc3)CS[C@H]12)c1csc(N)n1)C(=O)O [Ceftazidime, ceftazidime]	105.0
C[C@@H](O)[C@H]1C(=O)N2C(C(=O)O)=C(S[C@@H]3CN[C@H](C(=O)N(C)C)C3)[C@H](C)[C@H]12 [Meropenem, meropenem]	60.1
Cn1c(N)c(NC(=O)NCCN)c[n+]1CC1=C(C(=O)O)N2C(=O)[C@@H](NC(=O)/C(=N\OC(C)(C)C(=O)[O-])c3nsc(N)n3)[C@H]2SC1 [Ceftolozane, ceftolozane]	86.1
C[C@@H]1O[C@@H]1P(=O)(O)O [Fosfomycin, fosfomycin]	103.6
C[C@]1(Cn2ccnn2)[C@H](C(=O)O)N2C(=O)C[C@H]2S1(=O)=O [Tazobactam, tazobactam]	69.7
C[C@H]1[C@H](NC(=O)/C(=N\OC(C)(C)C(=O)O)c2csc(N)n2)C(=O)N1S(=O)(=O)O [Aztreonam, aztreonam]	66.5
C[C@@H](O)[C@H]1C(=O)N2C(C(=O)O)=C(S[C@@H]3CN[C@H](CNS(N)(=O)=O)C3)[C@H](C)[C@H]12 [Doripenem, doripenem]	64.6
NC(=O)[C@@H]1CC[C@@H]2CN1C(=O)N2OS(=O)(=O)O [Avibactam, avibactam]	82.3

====

# experiment.notes: Autosampler stability at 4 °C of extracted antibiotic-spiked plasma/CAMHB samples
# run.parameters: CAMHB extracted samples, 7 h autosampler 4 °C; MQC (nominal as E14)
recorded.endpoint: Mean accuracy (%), Table S8

C[C@@H](O)[C@H]1C(=O)N2C(C(=O)O)=C(S[C@@H]3CN[C@H](CNS(N)(=O)=O)C3)[C@H](C)[C@H]12 [Doripenem, doripenem]	105.2
CO/N=C(\C(=O)N[C@@H]1C(=O)N2C(C(=O)[O-])=C(C[N+]3(C)CCCC3)CS[C@H]12)c1csc(N)n1 [Cefepime, cefepime]	103.5
CCN1CCN(C(=O)N[C@@H](C(=O)N[C@@H]2C(=O)N3[C@@H]2SC(C)(C)[C@@H]3C(=O)O)c2ccccc2)C(=O)C1=O [Piperacillin, piperacillin]	86.7

====

# experiment.notes: Long-term storage stability of antibiotics in combination with fosfomycin spiked in plasma/CAMHB (−30 °C, −80 °C)
# Assay type: physicochemical
# run.parameters: plasma, combination with fosfomycin, 4 weeks at -80 °C; MQC (nominal as E14)
recorded.endpoint: Mean accuracy (%), Table S14

C[C@@H](O)[C@H]1C(=O)N2C(C(=O)O)=C(S[C@@H]3CN[C@H](CNS(N)(=O)=O)C3)[C@H](C)[C@H]12	106.9
Cn1c(N)c(NC(=O)NCCN)c[n+]1CC1=C(C(=O)O)N2C(=O)[C@@H](NC(=O)/C(=N\OC(C)(C)C(=O)[O-])c3nsc(N)n3)[C@H]2SC1	98.0
CN(C)c1cc(NC(=O)CNC(C)(C)C)c(O)c2c1C[C@H]1C[C@H]3[C@H](N(C)C)C(O)=C(C(N)=O)C(=O)[C@@]3(O)C(O)=C1C2=O	105.0

====

# experiment.notes: Long-term storage stability of antibiotics in combination with fosfomycin spiked in plasma/CAMHB (−30 °C, −80 °C)
# Type: physicochemical
# run.parameters: plasma, combination with fosfomycin, 4 weeks at -80 °C; HQC (nominal as E15)
recorded.endpoint: Mean accuracy (%), Table S14

C[C@@H](O)[C@H]1C(=O)N2C(C(=O)O)=C(S[C@@H]3CN[C@H](CNS(N)(=O)=O)C3)[C@H](C)[C@H]12	106.3
C[C@H]1[C@H](NC(=O)/C(=N\OC(C)(C)C(=O)O)c2csc(N)n2)C(=O)N1S(=O)(=O)O	97.8
Cn1c(N)c(NC(=O)NCCN)c[n+]1CC1=C(C(=O)O)N2C(=O)[C@@H](NC(=O)/C(=N\OC(C)(C)C(=O)[O-])c3nsc(N)n3)[C@H]2SC1	100.8
